# Tested on: KM12 colon
# measurement.description: NCI-60 one-dose screen, 48 h (100 = growth as untreated, 0 = no growth, -100 = all killed)
# condition.details: 10 µM unless noted
The panel holds about 83,000 compounds, 20% with a hit somewhere; the sample as a whole holds those more often. Activity calls are given as the source filed them. The calls were made as follows: active = growth percent below 10; inactive = the rest.
value.type: growth

CC(=O)C[n+]1cccc2c3ccccc3ccc21 = 88.2% (inactive)
CC1CCc2c(sc3nc(SCC(=O)c4cccc([N+](=O)[O-])c4)n(-c4ccccc4)c(=O)c23)C1 (stereo not given) = 93.5% (inactive)
COc1cc(/C=C/C(=O)c2cnn(-c3cc(=O)[nH]c4ccc(Cl)cc34)c2C)cc(OC)c1OC = -28.4% (active)
O=C(CSc1nnc(-c2ccc(-c3nc4ccccc4[nH]3)cc2)o1)Nc1ccc(Cl)cc1 = 22.9% (inactive)

Problem: // fetch growth for Cc1ccc(C2CC(c3ccc(NC(=O)Nc4ccccc4)cc3)=NN2c2ccc(S(N)(=O)=O)cc2)cc1 (stereo not given) ; system: KM12 colon
Result: -50% (active)

Problem: // fetch growth for CC(C)C[C@H](NC(=O)CNC(=O)C[C@H]1O[C@@H]2OC3(C)CC[C@H]4[C@H](C)CC[C@@H]([C@H]1C)[C@@]24O3)B(O)O ; system: KM12 colon
Result: -24.4% (active)

Problem: // fetch growth for COc1cc(C=O)ccc1OC(=O)c1cc(-c2ccc(C)cc2)n(-c2ccc(S(C)(=O)=O)cc2)n1 ; system: KM12 colon
Result: 104% (inactive)

Problem: // fetch growth for OCCn1cc(-c2nc3ccc4[nH]ncc4c3c3c2CCCC3)cn1 ; system: KM12 colon
Result: 18.8% (inactive)

Problem: // fetch growth for CN1CCN(C(=O)Oc2cc3c(c4ccccc24)[C@H](CCl)CN3C(=O)c2cc3cc(OCCCN4CCC4)ccc3[nH]2)[C@H]2CSSC[C@H]21 ; system: KM12 colon
Result: 2.01% (active)

Problem: // fetch growth for CCOC(=O)c1ccc(NC(=S)NC(=O)c2ccc(NC(=O)C(C)C)cc2OC)cc1 ; system: KM12 colon
Result: 30.2% (inactive)
